Target: hmGluR1 receptor (Homo sapiens, UniProt Q13255)
Construct: expressed in transfected cells
Sequence (Q13255 19-1194): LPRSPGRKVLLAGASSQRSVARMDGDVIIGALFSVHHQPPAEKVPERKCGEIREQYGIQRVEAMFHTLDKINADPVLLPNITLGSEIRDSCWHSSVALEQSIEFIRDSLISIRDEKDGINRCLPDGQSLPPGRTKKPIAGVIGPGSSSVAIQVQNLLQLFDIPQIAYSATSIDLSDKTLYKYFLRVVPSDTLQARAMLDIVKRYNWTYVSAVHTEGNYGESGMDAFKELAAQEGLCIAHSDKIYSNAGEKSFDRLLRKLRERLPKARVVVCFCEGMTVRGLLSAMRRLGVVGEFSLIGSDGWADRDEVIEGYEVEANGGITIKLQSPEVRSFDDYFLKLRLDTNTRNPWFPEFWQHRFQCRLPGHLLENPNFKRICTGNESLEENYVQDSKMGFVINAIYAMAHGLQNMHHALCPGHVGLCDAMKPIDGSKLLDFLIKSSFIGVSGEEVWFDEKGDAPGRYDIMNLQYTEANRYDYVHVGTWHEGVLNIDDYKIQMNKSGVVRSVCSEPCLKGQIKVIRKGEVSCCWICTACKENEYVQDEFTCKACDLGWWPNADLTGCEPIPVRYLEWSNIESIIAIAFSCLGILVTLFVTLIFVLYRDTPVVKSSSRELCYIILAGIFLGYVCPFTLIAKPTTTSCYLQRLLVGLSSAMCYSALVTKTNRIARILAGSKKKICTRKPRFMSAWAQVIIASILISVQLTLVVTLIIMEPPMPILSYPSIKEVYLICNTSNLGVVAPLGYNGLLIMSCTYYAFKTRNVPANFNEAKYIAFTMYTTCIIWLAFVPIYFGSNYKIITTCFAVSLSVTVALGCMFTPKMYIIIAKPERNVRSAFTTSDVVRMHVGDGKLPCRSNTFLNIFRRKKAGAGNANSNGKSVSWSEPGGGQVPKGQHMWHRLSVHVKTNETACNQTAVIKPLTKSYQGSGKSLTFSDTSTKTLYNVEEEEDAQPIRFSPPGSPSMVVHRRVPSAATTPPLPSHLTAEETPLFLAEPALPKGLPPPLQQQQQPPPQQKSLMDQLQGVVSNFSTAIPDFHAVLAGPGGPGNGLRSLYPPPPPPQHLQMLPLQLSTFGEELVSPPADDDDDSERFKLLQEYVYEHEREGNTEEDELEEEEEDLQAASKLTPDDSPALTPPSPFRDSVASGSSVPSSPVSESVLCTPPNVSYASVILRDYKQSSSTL
Assay: IC50 determination: intracellular calcium mobilization (FLIPR) upon Quisqualate stimulation in CHO cells stably expressing hmGluR1
Type: cell-based
Conditions: against Quisqualate 1 μM (EC80), FLIPR calcium mobilization, read-out: IC50 Class
pIC50: −log10 of the molar value.
# pIC50 listing for each entry below

Reference set, count: 2
1. Nc1ccnc2sc3c(=O)n(-c4ccc(Cl)cc4)cnc3c12 [28FK]; > 7.30
2. CCc1ccc(-n2cnc3c(sc4nccc(OC)c43)c2=O)cc1 [25G]; 6.00 to 6.82

Task item: Field request: pIC50 | item: C#CCNc1ccnc2sc3c(=O)n(-c4ccc(Cl)cc4)cnc3c12 [28DL]
Reply: > 7.30

Task item: Field request: pIC50 | item: CNc1ncnc2sc3c(=O)n(-c4ccc5scnc5c4)cnc3c12 [95BG]
Reply: > 7.30

Task item: Field request: pIC50 | item: C=C(C)CNc1ccnc2sc3c(=O)n(-c4ccc5c(c4)OCCO5)cnc3c12 [28FF]
Reply: 6.00 to 6.82

Task item: Field request: pIC50 | item: COc1ccc(-n2cnc3c(sc4nccc(N(C)CCO)c43)c2=O)cc1 [28HJ]
Reply: > 7.30

Task item: Field request: pIC50 | item: COc1ccc(-n2cnc3c(sc4ncnc(Nc5ccc(Cl)cc5)c43)c2=O)cc1 [190E]
Reply: 6.00 to 6.82

Task item: Field request: pIC50 | item: O=c1c2sc3nccc(NCCCO)c3c2ncn1-c1ccc2c(c1)OCCO2 [28CI]
Reply: > 7.30

Task item: Field request: pIC50 | item: Cc1ccc(-n2cnc3c(sc4cnnc(Cl)c43)c2=O)cc1 [compound 166]
Reply: < 6.00

Task item: Field request: pIC50 | item: COc1ccc(-n2cnc3c(sc4nccc(NCCCO)c43)c2=O)cc1 [28HK]
Reply: > 7.30

Task item: Field request: pIC50 | item: COc1ccc(-n2cnc3c(sc4nccc(OC)c43)c2=O)c(F)c1 [25E]
Reply: < 6.00

Task item: Field request: pIC50 | item: CNc1c(CNC2CCC2)cnc2sc3c(=O)n(-c4ccc(OC)cc4)cnc3c12 [compound 208]
Reply: 6.00 to 6.82

Task item: Field request: pIC50 | item: Cc1ccc(-n2cnc3c(sc4ncnc(NC5CCC5)c43)c2=O)cc1 [95DH]
Reply: 6.00 to 6.82

Task item: Field request: pIC50 | item: O=c1c2sc3ncnc(NCC(F)(F)F)c3c2ncn1-c1ccc(Cl)cc1 [95EF]
Reply: > 7.30

Task item: Field request: pIC50 | item: CNc1c(C#N)cnc2sc3c(=O)n(-c4ccc(OC)cc4)cnc3c12 [28FQ]
Reply: 6.82 to 7.30

Ref: patent US7989464B2
